# T/Kid per record follows
Tested on: FR-positive M109 tumor
Test: In vivo biodistribution in mice bearing M109 tumors
Settings: 177Lu chelate, 300 nmol/kg
Description: Four- to eight-week-old female nu/nu mice or NSG mice (Harlan Sprague-Dawley, Inc.) were maintained on a standard 12-h light-dark cycle and fed ad libitum with Folate deficient purified rodent diet (TestDiet #AIN-93G) for the duration of the experiment. […] Each tissue sample was counted for the activities of radioelement using a gamma-counter. […] Final bar graphs are expressed as % injected dose per gram of tissue or tumor to kidney ratio, or % tumor to (kidneys+liver+spleen) ratio.

Record request: T/Kid value, item Nc1nc2ncc(CNc3ccc(C(=O)N[C@@H](CCCCNC(=O)COc4ccc(C[C@H](NC(=O)CNC(=O)CN5CCN(CC(=O)O)CCN(CC(=O)O)CCN(CC(=O)O)CC5)C(=O)O)cc4)C(=O)O)cc3)nc2c(=O)[nH]1
0.46 +/− 0.14

Record request: T/Kid value, item Nc1nc2ncc(CNc3ccc(C(=O)N[C@@H](CCCCNC(=O)COc4ccc(C[C@H](NC(=O)COc5ccc(C[C@H](NC(=O)CN6CCN(CC(=O)O)CCN(CC(=O)O)CCN(CC(=O)O)CC6)C(=O)O)cc5)C(=O)O)cc4)C(=O)O)cc3)nc2c(=O)[nH]1
0.57 +/− 0.22

Record request: T/Kid value, item Nc1nc2ncc(CNc3ccc(C(=O)N[C@@H](CCCCNC(=O)[C@H](Cc4ccc5ccccc5c4)NC(=O)[C@H]4CC[C@H](CNC(=O)CN5CCN(CC(=O)O)CCN(CC(=O)O)CCN(CC(=O)O)CC5)CC4)C(=O)O)cc3)nc2c(=O)[nH]1
0.37 +/− 0.11

Record request: T/Kid value, item Nc1nc2ncc(CNc3ccc(C(=O)N[C@@H](Cc4ccc(OCCNC(=O)CN5CCN(CC(=O)O)CCN(CC(=O)O)CCN(CC(=O)O)CC5)cc4)C(=O)O)cc3)nc2c(=O)[nH]1
0.38 +/− 0.07
